# zone of inhibition at 2000 µg/mL values compiled below
test system: Escherichia coli; experiment: Antimicrobial activity Escherichia coli at 2 mg/mL after 24 hrs by agar diffusion technique; type: functional; settings: read-out: DIZ

compound	zone of inhibition at 2000 µg/mL / mm
CCOC(=O)c1c(N2C(=O)C3C4c5ccccc5C(c5ccccc54)C3C2=O)sc2c1CCCC2 (centres undefined)	14
Nc1ccccc1N1C(=O)C2C3c4ccccc4C(c4ccccc43)C2C1=O (centres undefined)	12
O=C(c1ccc(N2C(=O)C3C4c5ccccc5C(c5ccccc54)C3C2=O)cc1)c1nc2ccccc2[nH]1 (centres undefined)	23
COC(=O)n1c(C2C3c4ccccc4C(c4ccccc43)C2C(=O)O)nc2ccccc21 (centres undefined)	13

Data origin: ChEMBL document CHEMBL1157049
